Recorded melting point for the following molecules

- COMPOUND: "O=S(=O)(Nc1cccc(CCOCc2csc(-c3ccc(Cl)cc3)n2)c1)C(F)(F)F"
  melting point: "114 to 116 °C"
- COMPOUND: "COc1ccc(-c2cccc(COCCc3cccc(NS(=O)(=O)C(F)(F)F)c3)c2)cc1"
  melting point: "88 to 90 °C"
- COMPOUND: "O=S(=O)(Nc1cccc(CCOCc2ccc(-c3ccccn3)cc2)c1)C(F)(F)F"
  melting point: "95 to 96 °C"

Q: Let me know recorded melting point for CC(C)(C)c1ccc(-c2nc(COCCc3cccc(NS(=O)(=O)C(F)(F)F)c3)no2)cc1 , thanks.
Result: 75 to 77 °C

Q: Give the reported value of melting point for this record: COc1cccc(-c2nc(COCCc3cccc(NS(=O)(=O)C(F)(F)F)c3)no2)c1
Result: 52 to 54 °C

The origin of these recorded values is patent US6930131B2.
